TGT: MtInhA:NADH binary complex (Mycobacterium tuberculosis)
Construct: made in house
TEST_NAME: biochemical
Assay type: binding
MEASUREMENT_CONTEXT: estimated from ΔH and ΔS (Eq. 7)
PARAMETER: ΔG (kcal/mol)
Express your answer in kcal/mol, writing the number without its unit.

Prompt: Field request: ΔG | item: COc1ccc(-c2n[nH]cc2/C=N\NC(=O)c2cc(C)nc3c(C)cccc23)cc1 [Labio_11]
Response: -6.5

Prompt: Could you do the same for CCN(CC)Cc1cc(-c2ccnc3cc(Cl)ccc23)ccc1O [Labio_15] , please?
Response: -6.2

Prompt: Could you do the same for COc1ccc(CCC(=O)Nc2nn3cc(-c4ccccc4)nc3s2)cc1 [Labio_6] , please?
Response: -7.6

Prompt: Could you do the same for CCCOc1ccc(-c2nnc(NC(=O)Nc3ccccc3C)s2)cc1 [Labio_3] , please?
Response: -7.4

Prompt: Could you do the same for CCOC(=O)c1ccc2nc(C)cc(Nc3ccc(N4CCCCC4)cc3)c2c1 [Labio_17] , please?
Response: -7.1

Prompt: Could you do the same for Cc1nc([C@H](C)NC(=O)c2ccc3oc(Cc4ccccc4F)nc3c2)cs1 [Labio_2] , please?
Response: -7.7

---

I'd appreciate it if you could supply ΔS values for the items below.
TGT: MtInhA:NADH binary complex (Mycobacterium tuberculosis)
Construct: made in house
TEST_NAME: biochemical
Format: binding
MEASUREMENT_CONTEXT: van't Hoff analysis, 15–30 °C
Express your answer in cal.mol^−1.K^−1, writing the number without its unit.

Prompt: Field request: ΔS | item: CCCOc1ccc(-c2nnc(NC(=O)Nc3ccccc3C)s2)cc1
Response: −68.5

Prompt: Could you do the same for COc1ccc(-c2n[nH]cc2/C=N\NC(=O)c2cc(C)nc3c(C)cccc23)cc1 , please?
Response: −40.9

Prompt: Could you do the same for Cc1nc([C@H](C)NC(=O)c2ccc3oc(Cc4ccccc4F)nc3c2)cs1 , please?
Response: −100.5

Prompt: Could you do the same for CCOC(=O)c1ccc2nc(C)cc(Nc3ccc(N4CCCCC4)cc3)c2c1 , please?
Response: −54.5

Prompt: Could you do the same for CCN(CC)Cc1cc(-c2ccnc3cc(Cl)ccc23)ccc1O , please?
Response: −11.5

Prompt: Could you do the same for COc1ccc(CCC(=O)Nc2nn3cc(-c4ccccc4)nc3s2)cc1 , please?
Response: −124.2

---

TGT: MtInhA:NADH binary complex (Mycobacterium tuberculosis, UniProt P9WGR1)
Construct: made in house
Sequence (P9WGR1 whole entry, looked up, one chain of several): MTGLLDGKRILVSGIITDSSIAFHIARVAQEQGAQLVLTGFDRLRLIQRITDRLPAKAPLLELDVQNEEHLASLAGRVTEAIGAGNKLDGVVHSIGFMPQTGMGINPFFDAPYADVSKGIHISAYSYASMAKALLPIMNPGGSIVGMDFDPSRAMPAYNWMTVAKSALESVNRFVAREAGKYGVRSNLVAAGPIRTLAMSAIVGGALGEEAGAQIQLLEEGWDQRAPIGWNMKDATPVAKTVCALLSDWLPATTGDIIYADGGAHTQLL
TEST_NAME: biochemical
Assay type: binding
MEASUREMENT_CONTEXT: 20 °C
PARAMETER: pKd
Quick note: pKd values are minus log10 of concentrations in mol/L.

Prompt: Field request: pKd | item: Cc1ccccc1OCc1nc(-c2ccc(NC(=O)c3cccs3)cc2)no1 [Labio_16]
Response: 5.92

---

TEST_NAME: in vitro
Assay type: cell-based, murine
MEASUREMENT_CONTEXT: mouse
PARAMETER: viability at 72 h, 20 µM (%)
Express your answer in %, writing the number without its unit.

Prompt: Field request: viability at 72 h, 20 µM | item: CCOC(=O)c1ccc2nc(C)cc(Nc3ccc(N4CCCCC4)cc3)c2c1
Response: 98

Prompt: Could you do the same for Cc1ccccc1OCc1nc(-c2ccc(NC(=O)c3cccs3)cc2)no1 , please?
Response: 91

---

TGT: MtInhA (Mycobacterium tuberculosis)
Construct: made in house
TEST_NAME: MtInhA enzyme inhibition by steady-state kinetics (NADH oxidation at 340 nm)
Format: biochemical
MEASUREMENT_CONTEXT: Ki NADH Kis, varied NADH 10–160 μM, fixed DD-CoA 45 μM; EI complex
PARAMETER: pKi
Quick note: pKi values are minus log10 of concentrations in mol/L.

Prompt: Field request: pKi | item: CCOC(=O)c1ccc2nc(C)cc(Nc3ccc(N4CCCCC4)cc3)c2c1
Response: 5.10

---

TGT: MtInhA (Mycobacterium tuberculosis)
Construct: made in house
TEST_NAME: MtInhA enzyme inhibition by steady-state kinetics (NADH oxidation at 340 nm)
Assay type: biochemical
MEASUREMENT_CONTEXT: Lineweaver-Burk plot, fixed DD-CoA 45 μM
PARAMETER: mode of inhibition with respect to NADH

Examples with their reported mode of inhibition with respect to NADH follow.
- COc1ccc(-c2n[nH]cc2/C=N\NC(=O)c2cc(C)nc3c(C)cccc23)cc1 [Labio_11]: non-competitive
- Cc1nc([C@H](C)NC(=O)c2ccc3oc(Cc4ccccc4F)nc3c2)cs1 [Labio_2]: non-competitive
- CCN(CC)Cc1cc(-c2ccnc3cc(Cl)ccc23)ccc1O [Labio_15]: non-competitive
- Cc1ccccc1OCc1nc(-c2ccc(NC(=O)c3cccs3)cc2)no1 [Labio_16]: uncompetitive
- COc1ccc(CCC(=O)Nc2nn3cc(-c4ccccc4)nc3s2)cc1 [Labio_6]: uncompetitive

Prompt: Field request: mode of inhibition with respect to NADH | item: CCCOc1ccc(-c2nnc(NC(=O)Nc3ccccc3C)s2)cc1 [Labio_3]
Response: uncompetitive

Prompt: Could you do the same for CCOC(=O)c1ccc2nc(C)cc(Nc3ccc(N4CCCCC4)cc3)c2c1 [Labio_17] , please?
Response: non-competitive

---

I'd appreciate it if you could supply pKd values for the items below.
TGT: MtInhA:NADH binary complex (Mycobacterium tuberculosis, UniProt P9WGR1)
Construct: made in house
TEST_NAME: biochemical
Assay type: binding
MEASUREMENT_CONTEXT: 25 °C (298.15 K)
Quick note: pKd values are minus log10 of concentrations in mol/L.

Prompt: Field request: pKd | item: COc1ccc(-c2n[nH]cc2/C=N\NC(=O)c2cc(C)nc3c(C)cccc23)cc1
Response: 4.75

Prompt: Could you do the same for CCCOc1ccc(-c2nnc(NC(=O)Nc3ccccc3C)s2)cc1 , please?
Response: 5.36

Prompt: Could you do the same for COc1ccc(CCC(=O)Nc2nn3cc(-c4ccccc4)nc3s2)cc1 , please?
Response: 5.51

Prompt: Could you do the same for CCN(CC)Cc1cc(-c2ccnc3cc(Cl)ccc23)ccc1O , please?
Response: 4.53

Prompt: Could you do the same for CCOC(=O)c1ccc2nc(C)cc(Nc3ccc(N4CCCCC4)cc3)c2c1 , please?
Response: 5.14

Prompt: Could you do the same for Cc1ccccc1OCc1nc(-c2ccc(NC(=O)c3cccs3)cc2)no1 , please?
Response: 5.82

Prompt: Could you do the same for Cc1nc([C@H](C)NC(=O)c2ccc3oc(Cc4ccccc4F)nc3c2)cs1 , please?
Response: 5.66

---

TGT: MtInhA (Mycobacterium tuberculosis, UniProt P9WGR1)
Construct: made in house
Sequence (P9WGR1 whole entry, looked up): as the sequence (P9WGR1 whole entry, looked up, one chain of several) above
TEST_NAME: MtInhA enzyme inhibition by steady-state kinetics (NADH oxidation at 340 nm)
Type: biochemical
MEASUREMENT_CONTEXT: varied DD-CoA 15–135 μM, fixed NADH 60 μM; EI complex; read-out: Ki DD-CoA Kis
PARAMETER: pKi
Quick note: pKi values are minus log10 of concentrations in mol/L.

Prompt: Field request: pKi | item: Cc1nc([C@H](C)NC(=O)c2ccc3oc(Cc4ccccc4F)nc3c2)cs1
Response: 6.15

Prompt: Could you do the same for CCN(CC)Cc1cc(-c2ccnc3cc(Cl)ccc23)ccc1O , please?
Response: 4.13

Prompt: Could you do the same for COc1ccc(CCC(=O)Nc2nn3cc(-c4ccccc4)nc3s2)cc1 , please?
Response: 6.15

Prompt: Could you do the same for COc1ccc(-c2n[nH]cc2/C=N\NC(=O)c2cc(C)nc3c(C)cccc23)cc1 , please?
Response: 4.57

---

TGT: MtInhA (Mycobacterium tuberculosis, UniProt P9WGR1)
Construct: made in house
TEST_NAME: MtInhA enzyme inhibition by steady-state kinetics (NADH oxidation at 340 nm)
Format: biochemical
MEASUREMENT_CONTEXT: varied NADH 10–160 μM, fixed DD-CoA 45 μM; ESI complex
Protocol: In order to assess the relative potency of the compounds, inhibition studies were performed by steady-state kinetic studies using a UV-2550 UV/Visible spectrophotometer (Shimadzu^©), monitoring the NADH oxidation at 340 nm (εβ-NADH = […]), in the forward direction. Experiments were performed at 25 °C, in 100 mM Pipes pH 7.0 and were started with the addition of the 2.2 μM MtInhA to a total reaction volume of 500 μL, and monitoring the change in absorbance for 1 min. […]
PARAMETER: Ki NADH Kii (µM)
Express your answer in µM, writing the number without its unit.

Prompt: Field request: Ki NADH Kii | item: CCOC(=O)c1ccc2nc(C)cc(Nc3ccc(N4CCCCC4)cc3)c2c1 [Labio_17]
Response: 8

Prompt: Could you do the same for Cc1nc([C@H](C)NC(=O)c2ccc3oc(Cc4ccccc4F)nc3c2)cs1 [Labio_2] , please?
Response: 2.2

Prompt: Could you do the same for COc1ccc(-c2n[nH]cc2/C=N\NC(=O)c2cc(C)nc3c(C)cccc23)cc1 [Labio_11] , please?
Response: 41

Prompt: Could you do the same for CCN(CC)Cc1cc(-c2ccnc3cc(Cl)ccc23)ccc1O [Labio_15] , please?
Response: 110

Prompt: Could you do the same for Cc1ccccc1OCc1nc(-c2ccc(NC(=O)c3cccs3)cc2)no1 [Labio_16] , please?
Response: 7

Prompt: Could you do the same for COc1ccc(CCC(=O)Nc2nn3cc(-c4ccccc4)nc3s2)cc1 [Labio_6] , please?
Response: 1.8
